- assay: Rough solubility testing
- Type: physicochemical
- condition notes: organic solvent or mixture, thermodynamic from solid; solvent MeOH, ~20° C.; read-out: Solubility of Tosylate (mg/mL, ~20° C.)
measurement name: solubility

Problem: Which solubility value is on record for C=CC(=O)Nc1cc(Nc2nccc(-n3ccc4cccnc43)n2)c(OC)cc1N(C)CCN(C)C.Cc1ccc(S(=O)(=O)O)cc1 [Form I] ?
Solution: ~27.3 mg/mL

* * *

- assay: Rough solubility testing
- Format: physicochemical
- condition notes: organic solvent or mixture, thermodynamic from solid; solvent Isobutanol, ~20° C.; read-out: Solubility of Tosylate (mg/mL, ~20° C.)
measurement name: solubility

Problem: Recorded solubility for C=CC(=O)Nc1cc(Nc2nccc(-n3ccc4cccnc43)n2)c(OC)cc1N(C)CCN(C)C.Cc1ccc(S(=O)(=O)O)cc1 [Form I] , please?
Solution: < 1 mg/mL

* * *

- assay: Rough solubility testing
- Assay type: physicochemical
- condition notes: organic solvent or mixture, thermodynamic from solid; solvent IPA, ~20° C.; read-out: Solubility of Tosylate (mg/mL, ~20° C.)
measurement name: solubility

Problem: Fill in the blank: the reported solubility of C=CC(=O)Nc1cc(Nc2nccc(-n3ccc4cccnc43)n2)c(OC)cc1N(C)CCN(C)C.Cc1ccc(S(=O)(=O)O)cc1 [Form I] is ____.
Solution: < 1.11 mg/mL

* * *

- assay: Rough solubility testing
- Type: physicochemical
- condition notes: organic solvent or mixture, thermodynamic from solid; solvent DCM, ~20° C.; read-out: Solubility of Tosylate (mg/mL, ~20° C.)
measurement name: solubility

Problem: Would you kindly share the measured solubility for C=CC(=O)Nc1cc(Nc2nccc(-n3ccc4cccnc43)n2)c(OC)cc1N(C)CCN(C)C.Cc1ccc(S(=O)(=O)O)cc1 [Form I] ?
Solution: ~5.1 mg/mL

* * *

- assay: Rough solubility testing
- Assay type: physicochemical
- condition notes: organic solvent or mixture, thermodynamic from solid; solvent EA, ~20° C.; read-out: Solubility of Tosylate (mg/mL, ~20° C.)
measurement name: solubility

Problem: Need solubility of C=CC(=O)Nc1cc(Nc2nccc(-n3ccc4cccnc43)n2)c(OC)cc1N(C)CCN(C)C.Cc1ccc(S(=O)(=O)O)cc1 [Form I] , thanks.
Solution: < 1 mg/mL

* * *

- assay: Rough solubility testing
- Format: physicochemical
- condition notes: organic solvent or mixture, thermodynamic from solid; solvent Heptane, ~20° C.; read-out: Solubility of Tosylate (mg/mL, ~20° C.)
- Protocol: About 2 mg of crystalline Form I was weighed into glass vials, and then different selected solvents were added in the vial stepwise until all solid was dissolved. This experiment was conducted by manual dilution combined with visual observation at ˜20° C. The total volume of solvent added was recorded.
measurement name: solubility

Problem: Given the compound C=CC(=O)Nc1cc(Nc2nccc(-n3ccc4cccnc43)n2)c(OC)cc1N(C)CCN(C)C.Cc1ccc(S(=O)(=O)O)cc1 [Form I] , what is its reported solubility?
Solution: < 1 mg/mL

* * *

- assay: Rough solubility testing
- Format: physicochemical
- condition notes: ACN (acetonitrile), organic solvent or mixture, thermodynamic from solid; solvent ACN, ~20° C.; read-out: Solubility of Tosylate (mg/mL, ~20° C.)
measurement name: solubility

Problem: Give the measured solubility of C=CC(=O)Nc1cc(Nc2nccc(-n3ccc4cccnc43)n2)c(OC)cc1N(C)CCN(C)C.Cc1ccc(S(=O)(=O)O)cc1 [Form I] .
Solution: ~2.2 mg/mL

* * *

- assay: Rough solubility testing
- Format: physicochemical
- condition notes: organic solvent or mixture, thermodynamic from solid; solvent Acetone, ~20° C.; read-out: Solubility of Tosylate (mg/mL, ~20° C.)
measurement name: solubility

Problem: Would you mind telling me what solubility value was observed for C=CC(=O)Nc1cc(Nc2nccc(-n3ccc4cccnc43)n2)c(OC)cc1N(C)CCN(C)C.Cc1ccc(S(=O)(=O)O)cc1 [Form I] ?
Solution: ~0.95 mg/mL

* * *

- assay: Rough solubility testing
- Format: physicochemical
- condition notes: thermodynamic from solid; solvent Water, ~20° C.; read-out: Solubility of Tosylate (mg/mL, ~20° C.)
- Method: About 2 mg of crystalline Form I was weighed into glass vials, and then different selected solvents were added in the vial stepwise until all solid was dissolved. This experiment was conducted by manual dilution combined with visual observation at ˜20° C. The total volume of solvent added was recorded.
measurement name: solubility

Problem: Endpoint output: solubility of C=CC(=O)Nc1cc(Nc2nccc(-n3ccc4cccnc43)n2)c(OC)cc1N(C)CCN(C)C.Cc1ccc(S(=O)(=O)O)cc1 [Form I] . Value?
Solution: < 1.02 mg/mL
